Source: the NIST ThermoML archive (doi:10.1016/j.jct.2011.11.021)

- PROTOCOL_DETAILS: activity coefficient (dimensionless); of the first substance listed, at infinite dilution; xn = mol fraction of the nth substance listed
- TEST_PARAMETERS: 318.15 K; Liquid; Chromatography; x1 = 0
Classify as follows. Reported activity coefficient greater than or equal to 2: t. Reported activity coefficient below: f.

Task: Can CCc1ccccc1 [ethylbenzene] + COCC[N+]1(C)CCOCC1.O=S(=O)([N-]S(=O)(=O)C(F)(F)F)C(F)(F)F be said to have activity coefficient at or above 2?
Result: t

Task: Confirm if activity coefficient reported for the molecule CCCCCCCCC [nonane] + COCC[N+]1(C)CCOCC1.O=S(=O)([N-]S(=O)(=O)C(F)(F)F)C(F)(F)F is 2 or above.
Result: t

Task: Does the molecule C1CCOC1 [tetrahydrofuran] + COCC[N+]1(C)CCOCC1.O=S(=O)([N-]S(=O)(=O)C(F)(F)F)C(F)(F)F have recorded activity coefficient that is 2 or more?
Result: f

Task: Is reported activity coefficient greater than or equal to 2 here: C=CCCCCC [1-heptene] + COCC[N+]1(C)CCOCC1.O=S(=O)([N-]S(=O)(=O)C(F)(F)F)C(F)(F)F
Result: t

Task: Can Cc1cccc(C)c1 [1,3-dimethylbenzene] + COCC[N+]1(C)CCOCC1.O=S(=O)([N-]S(=O)(=O)C(F)(F)F)C(F)(F)F be said to have activity coefficient at or above 2?
Result: t

Task: In plain terms: is recorded activity coefficient at least 2 for CCC(C)(C)C [2,2-dimethylbutane] + COCC[N+]1(C)CCOCC1.O=S(=O)([N-]S(=O)(=O)C(F)(F)F)C(F)(F)F ?
Result: t

Task: In plain terms: is recorded activity coefficient at least 2 for C=Cc1ccccc1 [styrene] + COCC[N+]1(C)CCOCC1.O=S(=O)([N-]S(=O)(=O)C(F)(F)F)C(F)(F)F ?
Result: f

Task: # check: activity coefficient of CC(C)(C)O [2-methylpropan-2-ol] + COCC[N+]1(C)CCOCC1.O=S(=O)([N-]S(=O)(=O)C(F)(F)F)C(F)(F)F is greater than or equal to 2
Result: t

Task: activity coefficient >= 2 for COC(C)=O [methyl ethanoate] + COCC[N+]1(C)CCOCC1.O=S(=O)([N-]S(=O)(=O)C(F)(F)F)C(F)(F)F ?
Result: f

Task: Would you say c1ccsc1 [thiophene] + COCC[N+]1(C)CCOCC1.O=S(=O)([N-]S(=O)(=O)C(F)(F)F)C(F)(F)F shows activity coefficient at minimum 2?
Result: f

Task: # check: activity coefficient of Cc1ccccc1C [1,2-dimethylbenzene] + COCC[N+]1(C)CCOCC1.O=S(=O)([N-]S(=O)(=O)C(F)(F)F)C(F)(F)F is greater than or equal to 2
Result: t

Task: Hi team, for COC(C)(C)C [2-methoxy-2-methylpropane] + COCC[N+]1(C)CCOCC1.O=S(=O)([N-]S(=O)(=O)C(F)(F)F)C(F)(F)F , is the recorded activity coefficient at or above 2?
Result: t

Task: Answer whether activity coefficient of CC(C)CC(C)(C)C [2,2,4-trimethylpentane] + COCC[N+]1(C)CCOCC1.O=S(=O)([N-]S(=O)(=O)C(F)(F)F)C(F)(F)F is greater than or equal to 2.
Result: t

Task: Hi team, for CCC(=O)CC [pentan-3-one] + COCC[N+]1(C)CCOCC1.O=S(=O)([N-]S(=O)(=O)C(F)(F)F)C(F)(F)F , is the recorded activity coefficient at or above 2?
Result: f
